Attribute: OATP2B1 Inhib %
Target: OATP2B1 (Homo sapiens)
Sequence (O94956 1-709): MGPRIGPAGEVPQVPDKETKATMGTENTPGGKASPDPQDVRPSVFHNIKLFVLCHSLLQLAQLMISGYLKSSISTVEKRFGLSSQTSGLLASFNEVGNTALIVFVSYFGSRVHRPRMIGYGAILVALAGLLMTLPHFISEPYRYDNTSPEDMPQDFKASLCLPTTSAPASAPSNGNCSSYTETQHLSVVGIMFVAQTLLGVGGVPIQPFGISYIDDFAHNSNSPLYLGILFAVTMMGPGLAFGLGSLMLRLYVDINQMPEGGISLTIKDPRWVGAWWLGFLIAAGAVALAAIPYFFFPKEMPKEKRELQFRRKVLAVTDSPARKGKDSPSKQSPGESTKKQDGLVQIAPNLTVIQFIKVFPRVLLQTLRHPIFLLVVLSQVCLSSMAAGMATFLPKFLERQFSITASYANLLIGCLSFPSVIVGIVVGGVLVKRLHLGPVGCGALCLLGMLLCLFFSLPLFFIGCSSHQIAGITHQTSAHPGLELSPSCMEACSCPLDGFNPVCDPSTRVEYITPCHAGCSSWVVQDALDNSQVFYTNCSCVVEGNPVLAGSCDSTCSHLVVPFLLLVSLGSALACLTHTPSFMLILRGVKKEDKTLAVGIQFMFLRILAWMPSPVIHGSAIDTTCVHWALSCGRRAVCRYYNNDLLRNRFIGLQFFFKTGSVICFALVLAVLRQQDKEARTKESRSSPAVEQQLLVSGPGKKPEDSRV
reported_metric: OATP2B1 Inhib % (%)

CN(C)c1ccc(C=Cc2cc[n+](C)cc2)cc1: 12.8
O=C(O)C(=O)O.[NH-][C@@H]1CCCC[C@H]1[NH-].[Pt+2]: 8.2
C[C@@H]1[C@H](O)[C@@H](C)/C=C/C=C/CC/C=C/C=C/C=C/C=C/C(O[C@H]2O[C@H](C)[C@@H](O)[C@H](N)[C@@H]2O)CC2O[C@](O)(CC(O)C(O)CCC(O)CC(O)CC(O)CC(=O)O[C@H]1C)CC(O)C2C(=O)O (stereo partly shown): 23.4
N[C@@H]1C[C@H]1c1ccccc1 (racemic): 15.5

* * *

As an illustration, consider measured OATP1B3 Inhib % for compounds on OATP1B3 (Homo sapiens).
Sequence (Q9NPD5 whole entry): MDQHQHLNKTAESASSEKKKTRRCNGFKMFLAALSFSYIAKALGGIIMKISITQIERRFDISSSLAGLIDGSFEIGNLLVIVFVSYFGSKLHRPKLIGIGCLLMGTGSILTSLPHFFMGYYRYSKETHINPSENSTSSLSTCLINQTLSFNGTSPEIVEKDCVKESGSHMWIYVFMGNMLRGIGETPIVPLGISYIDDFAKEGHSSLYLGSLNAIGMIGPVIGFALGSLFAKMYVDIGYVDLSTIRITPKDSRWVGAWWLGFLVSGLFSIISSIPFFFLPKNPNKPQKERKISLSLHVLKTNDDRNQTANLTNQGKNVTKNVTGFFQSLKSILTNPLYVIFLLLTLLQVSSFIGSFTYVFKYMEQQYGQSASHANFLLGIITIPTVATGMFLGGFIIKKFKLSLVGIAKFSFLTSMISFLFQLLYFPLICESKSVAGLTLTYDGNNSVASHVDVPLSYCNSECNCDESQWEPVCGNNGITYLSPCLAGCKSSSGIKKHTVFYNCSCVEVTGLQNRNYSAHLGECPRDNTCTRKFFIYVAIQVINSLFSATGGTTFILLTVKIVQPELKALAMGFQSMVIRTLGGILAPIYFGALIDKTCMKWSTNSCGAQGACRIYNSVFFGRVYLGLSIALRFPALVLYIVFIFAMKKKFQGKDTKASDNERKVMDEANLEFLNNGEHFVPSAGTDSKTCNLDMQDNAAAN
reported_metric: OATP1B3 Inhib %

O=C(O)C(=O)O.[NH-][C@@H]1CCCC[C@H]1[NH-].[Pt+2]: 9.9%
CN(C)c1ccc(C=Cc2cc[n+](C)cc2)cc1: -2.3%
C[C@@H]1[C@H](O)[C@@H](C)/C=C/C=C/CC/C=C/C=C/C=C/C=C/C(O[C@H]2O[C@H](C)[C@@H](O)[C@H](N)[C@@H]2O)CC2O[C@](O)(CC(O)C(O)CCC(O)CC(O)CC(O)CC(=O)O[C@H]1C)CC(O)C2C(=O)O (stereo partly shown): 74.9%
N[C@@H]1C[C@H]1c1ccccc1 (racemic): -9.3%

Ref: paper PMC3361267
